target: human IL-17AA (Homo sapiens, UniProt Q16552)
protocol text: IL-8 release assay in human epithelial keratinocytes adult (HEKa)
applied conditions: 3 ng/ml human IL-17AA + 10 ng/ml human TNFalpha, 68-72 h, IL-8 by HTRF, read-out: Rel EC50 L-8 release assay
pEC50: −log10 of the molar value.
readout name: pEC50

[[record]]
compound = "CC(C)n1cc(-c2ccc3c(c2)[C@H]([C@H](NC(=O)c2ccnn2C)C(=O)Nc2ccc(-c4cncn4C)cc2)CCC3)ccc1=O [Example 44]"
readout_name = "pEC50"
test_result = "6.00 to 7.00"

[[record]]
compound = "C[C@@H]1CN(c2cc(-c3ccc(Cl)c(C[C@H](NC(=O)c4ccnn4C)C(=O)Nc4ccc(-c5cncn5C)cc4)c3)ccn2)CCN1 [Example 210]"
readout_name = "pEC50"
test_result = "6.00 to 7.00"

[[record]]
compound = "CC(C)c1cc(-c2ccc(Cl)c(CC(NC(=O)c3ccnn3C)C(=O)Nc3ccc(-c4nncn4C)cc3)c2)ccn1 (centres unmarked) [Example 75]"
readout_name = "pEC50"
test_result = "< 6.00"

[[record]]
compound = "Cn1cncc1-c1ccc(NC(=O)C(Cc2cc(-c3ccnc(N4CC(N)C4)c3)ccc2Cl)NC(=O)c2ccnn2C)cc1 (centres unmarked) [Example 195]"
readout_name = "pEC50"
test_result = "6.00 to 7.00"

[[record]]
compound = "Cc1n[nH]c(C)c1-c1ccc(NC(=O)[C@H](Cc2cc(-c3ccc(CN4C[C@H]5C[C@@H]4CO5)cc3)ccc2Cl)NC(=O)C2(F)CC2)cc1 [Example 228]"
readout_name = "pEC50"
test_result = "6.00 to 7.00"

[[record]]
compound = "Cc1cnn(C)c1-c1ccc(NC(=O)[C@@H](NC(=O)C2(F)CC2)[C@H](C)c2cccc(-c3cncc(N4C[C@@H]5C[C@H]4CO5)n3)c2)cc1 [Example 343]"
readout_name = "pEC50"
test_result = "6.00 to 7.00"

[[record]]
compound = "CC(C)n1cc(-c2ccc(Cl)c(CC(NC(=O)OC(C)(C)C)C(=O)Nc3ccc(-c4cnn[nH]4)cc3)c2)ccc1=O (centres unmarked) [Example 76]"
readout_name = "pEC50"
test_result = "< 6.00"

[[record]]
compound = "CC(C)Cn1cc(-c2ccc(Cl)c(C[C@H](NC(=O)c3ccnn3C)C(=O)Nc3ccc(-c4cncn4C)cc3)c2)nn1 [Example 212]"
readout_name = "pEC50"
test_result = "6.00 to 7.00"


---

target: human IL-17AA (Homo sapiens, UniProt Q16552)
Sequence (Q16552 24-155) 1: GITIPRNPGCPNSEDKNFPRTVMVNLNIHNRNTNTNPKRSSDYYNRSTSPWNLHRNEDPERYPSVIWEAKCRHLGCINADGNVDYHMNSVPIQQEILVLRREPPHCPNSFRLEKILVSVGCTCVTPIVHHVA
Sequence (Q16552 24-155) 2: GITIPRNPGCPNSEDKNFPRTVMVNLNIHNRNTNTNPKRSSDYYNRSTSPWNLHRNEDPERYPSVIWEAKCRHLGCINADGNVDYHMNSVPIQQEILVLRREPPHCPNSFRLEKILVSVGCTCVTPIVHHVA
protocol text: IL-8 release assay in human epithelial keratinocytes adult (HEKa)
applied conditions: 3 ng/ml human IL-17AA + 10 ng/ml human TNFalpha, 68-72 h, IL-8 by HTRF, read-out: Rel EC50 L-8 release assay
pEC50: −log10 of the molar value.
readout name: pEC50

[[record]]
molecule = "CC(C)n1cc(-c2ccc(Cl)c(CC(NC(=O)c3ccnn3C)C(=O)Nc3ccc(-c4cnnn4C)cc3)c2)ccc1=O (stereo not shown)"
test_result = "< 6.00"

[[record]]
molecule = "Cc1n[nH]c(C)c1-c1ccc(NC(=O)C(Cc2cc(-c3ccc(=O)n(C(C)C)c3)ccc2Cl)NC(=O)c2ccnn2C)cc1 (stereo not shown)"
test_result = "> 7.00"

[[record]]
molecule = "Cn1cnnc1-c1ccc(NC(=O)C(Cc2cc(-c3ccc(O)c(C(=O)N4CCC4)c3)ccc2Cl)NC(=O)c2ccnn2C)cc1 (stereo not shown)"
test_result = "< 6.00"

[[record]]
molecule = "Cc1cnn(C)c1-c1ccc(NC(=O)[C@H](Cc2cc(-c3ccc(=O)n(C(C)C)c3)ccc2Cl)NC(=O)CC2CCC2)cc1"
test_result = "6.00 to 7.00"

[[record]]
molecule = "Cc1cnn(C)c1-c1ccc(NC(=O)[C@H](Cc2cc(-c3ccc(=O)n(C(C)C)c3)ccc2Cl)NC(=O)c2conc2C)cc1"
test_result = "> 7.00"

[[record]]
molecule = "Cc1cc(-c2ccc3c(c2)[C@H]([C@H](NC(=O)C2(F)CC2)C(=O)Nc2ccc(-c4c(C)n[nH]c4C)cc2)CC3)nc(N2C[C@@H]3C[C@H]2CO3)n1"
test_result = "> 7.00"

[[record]]
molecule = "Cc1nocc1C(=O)NC(Cc1cc(-c2ccc(=O)n(C(C)C)c2)ccc1Cl)C(=O)Nc1ccc(-c2cncn2C)c(Cl)c1 (stereo not shown)"
test_result = "> 7.00"


---

target: human IL-17AA (Homo sapiens, UniProt Q16552)
Sequence (Q16552 24-155) 1: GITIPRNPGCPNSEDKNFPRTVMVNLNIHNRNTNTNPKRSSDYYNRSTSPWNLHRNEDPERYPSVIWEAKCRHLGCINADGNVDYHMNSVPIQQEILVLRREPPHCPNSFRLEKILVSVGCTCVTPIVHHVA
Sequence (Q16552 24-155) 2: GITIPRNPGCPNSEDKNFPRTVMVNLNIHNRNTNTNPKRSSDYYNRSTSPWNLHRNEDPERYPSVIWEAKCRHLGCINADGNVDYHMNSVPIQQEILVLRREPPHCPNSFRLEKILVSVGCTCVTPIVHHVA
protocol text: IL-8 release assay in human epithelial keratinocytes adult (HEKa)
applied conditions: 3 ng/ml human IL-17AA + 10 ng/ml human TNFalpha, 68-72 h, IL-8 by HTRF, read-out: Rel EC50 L-8 release assay
Procedure: Example: IL-8 release assay in human epithelial keratinocytes adult (HEKa) Keratinocytes were seeded at 3500 cells/well in 384-well ViewPlates (Perkin Elmer) in Epilife medium (Thermo Fisher) containing human keratinocyte growth supplement (HKGS) without hydrocortisone and incubated in a humid incubator at 37° C., 5% CO2, overnight. […] for test compounds, by the use of acoustic pipetting. […] Cytotoxicity was measured in the cell-containing […]
pEC50: −log10 of the molar value.
readout name: pEC50

[[record]]
compound = "Cc1nocc1C(=O)N[C@@H](Cc1cc(-c2ccnc(C(O)C(C)C)c2)ccc1Cl)C(=O)Nc1ccc(-c2nncn2C)cc1 (stereo partly drawn)"
readout_name = "pEC50"
test_result = "6.00 to 7.00"

[[record]]
compound = "Cc1ncn(C)c1-c1ccc(NC(=O)[C@H](Cc2cc(-c3ccnc(N4CCN(C)CC4)c3)ccc2Cl)NC(=O)OC2CC2)cc1"
readout_name = "pEC50"
test_result = "6.00 to 7.00"

[[record]]
compound = "Cc1nocc1C(=O)N[C@@H](Cc1cc(-c2ccc(=O)n(C(C)C)c2)ccc1Cl)C(=O)Nc1ccc(-c2cncn2C)c(O)c1"
readout_name = "pEC50"
test_result = "> 7.00"

[[record]]
compound = "Cc1cnn(C)c1-c1ccc(NC(=O)[C@H](Cc2cc(-c3ccc(=O)n(C(C)C)c3)ccc2Cl)NC(=O)CC2CC2)cc1"
readout_name = "pEC50"
test_result = "6.00 to 7.00"

[[record]]
compound = "Cn1cncc1-c1ccc(NC(=O)[C@H](Cc2cc(-c3ccnc(C(C)(O)C4CC4)c3)ccc2Cl)NC(=O)C2(F)CC2)cc1 (stereo partly drawn)"
readout_name = "pEC50"
test_result = "> 7.00"

[[record]]
compound = "Cc1n[nH]c(C)c1-c1ccc(NC(=O)[C@@H](NC(=O)c2ccnn2C)[C@@H]2CCc3ccc(-c4ccc(CN5CCCC5)cc4)cc32)cc1"
readout_name = "pEC50"
test_result = "6.00 to 7.00"


---

target: UniProt Q16552
protocol text: IL-8 release assay in human epithelial keratinocytes adult (HEKa)
applied conditions: 3 ng/ml human IL-17AA + 10 ng/ml human TNFalpha, 68-72 h, IL-8 by HTRF, read-out: Rel EC50 L-8 release assay
Each entry below carries its recorded EC50.
readout name: EC50

[[record]]
compound = "Cn1cncc1-c1ccc(NC(=O)C(Cc2cc(-c3ccnc(OC4CCC4)c3)ccc2Cl)NC(=O)c2ccnn2C)cc1 (stereo not drawn)"
test_result = "100 to 1000 nM"

[[record]]
compound = "Cc1n[nH]c(C)c1-c1ccc(NC(=O)[C@@H](NC(=O)c2ccnn2C)[C@@H]2CCCc3ccc(-c4ccc(=O)n(C(C)C)c4)cc32)cc1O [Example 33]"
test_result = "< 100 nM"

[[record]]
compound = "CC(C)n1cc(-c2ccc(Cl)c(CC(NC(=O)c3ccnn3C)C(=O)Nc3ccc(-c4nn[nH]n4)cc3)c2)ccc1=O (stereo not drawn)"
test_result = "> 1000 nM"

